- method_notes: chemical genetic growth profiling, strain panel (AID 1159580);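 also: tested at 20 µM; growth read once vehicle control cultures reached saturation at 30 °C; 1 = growth at the plate median or of vehicle wells; lower values mean less growth of the strain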
- experimental_conditions: S. cerevisiae deletion strains, growth OD, locus YPR119W, strain clb2, stronger effect = lower value
Out of some 5,500 compounds screened, about 2,000 (36%) were called active. Roughly 18% stayed inconclusive and do not appear here. The list shows a part of the results.
Exercise: state measured normalized growth for each of the molecules provided.

Note to self: normalized growth recorded for CC(=O)O[C@H]1CCC2(C)C3=C(CCC2C1(C)C)[C@@]1(C)CC[C@@H](C(C)CCC=C(C)C)[C@]1(C)CC3 (stereo not given in full) was 1.06 (inactive)

Note to self: normalized growth recorded for `O=C1NC(O)=NC1(c1ccccc1)c1ccccc1` was 1.02 (inactive)

Note to self: normalized growth recorded for `O=C(O)c1cccnc1` was 0.998 (inactive)

Note to self: normalized growth recorded for `O=C(O)c1ccc(S(=O)(=O)N(Cl)Cl)cc1` was 1.02 (inactive)

Note to self: normalized growth recorded for CC(C)=CCCC(C)[C@@H]1CC[C@]2(C)C3=C(CC[C@@]12C)C1(C)CC[C@H](O)C(C)(C)C1CC3 (stereo not given in full) was 1.07 (inactive)

###

- method_notes: chemical genetic growth profiling, strain panel (AID 1159580)
- experimental_conditions: S. cerevisiae deletion strains, growth OD, locus YLR342W, strain FKS1 (second series), stronger effect = lower value
Screen size: about 5,500 compounds; about 2,000 (36%) were called active. Inconclusive results (about 18%) are left out. This is one part of the list.
Consider the cut-off 1. If the recorded normalized growth is strictly smaller, the label is Y; if not, the label is N.

Q: Hi there! Is normalized growth for `O=C(OCc1ccccc1)c1ccccc1` below 1, do you know?
A: Y

Q: Hi there! Is normalized growth for `NC(=O)NC(=O)Cc1ccccc1` below 1, do you know?
A: N

Q: Hi there! Is normalized growth for `NNCc1cccc(O)c1` below 1, do you know?
A: Y

Q: Hi there! Is normalized growth for CC(=O)O[C@H]1CC[C@@]2(C)C(=CC(=O)C3C4CCC(C(C)CCCC(C)C)[C@@]4(C)CCC32)C1 (stereo partly specified) below 1, do you know?
A: N

Q: Hi there! Is normalized growth for CC(C)CCCC(C)[C@H]1CCC2C3C(=O)C=C4C[C@@H](O)CC[C@]4(C)C3CC[C@@]21C (stereo partly specified) below 1, do you know?
A: N

###

- method_notes: chemical genetic growth profiling, strain panel (AID 1159580)
- experimental_conditions: S. cerevisiae deletion strains, growth OD, locus YLR384C, strain iki3, stronger effect = lower value
The campaign covered roughly 5,500 compounds. About 2,000 (36%) were called active. Roughly 18% stayed inconclusive and do not appear here. This is one part of the list.
measured_attribute: normalized growth
Quick one: just the number, no unit, thanks!

Note to self: normalized growth recorded for CC(C)c1ccc2c(c1)CCC1C(C)(C(N)=O)CCCC21C (stereo not given) was 0.954

Note to self: normalized growth recorded for CC(CCc1ccccc1)NCC(O)c1ccc(O)c(C(N)=O)c1 (stereo not given) was 1.02

Note to self: normalized growth recorded for CC(=O)O[C@H]1CC[C@@]2(C)C(=CC(=O)C3C4CCC(C(C)CCCC(C)C)[C@@]4(C)CCC32)C1 (stereo not given in full) was 0.971

Note to self: normalized growth recorded for `CC[N+](C)(C)c1cccc(O)c1` was 0.996

Note to self: normalized growth recorded for `CCOC(=O)[C@H](CCc1ccccc1)N[C@@H](C)C(=O)N1CCC[C@H]1C(=O)O` was 1

Note to self: normalized growth recorded for `Oc1cccc(O)c1` was 0.997

Note to self: normalized growth recorded for CCN1CCN(C(=O)NC(C(=O)N[C@@H]2C(=O)N3[C@@H]2SC(C)(C)[C@@H]3C(=O)O)c2ccccc2)C(=O)C1=O (stereo not given in full) was 0.992

Note to self: normalized growth recorded for CC(=O)OCC(=O)[C@@]1(O)[C@H](C)CC2C3CCC4=CC(=O)C=C[C@]4(C)[C@@]3(F)[C@@H](O)C[C@@]21C (stereo not given in full) was 0.965

Note to self: normalized growth recorded for NC(Cn1ccc(=O)c(O)c1)C(=O)O (stereo not given) was 1.03

Note to self: normalized growth recorded for CC(C)(C)NCC(O)c1ccc(O)c(CO)c1 (stereo not given) was 1.02

###

- method_notes: chemical genetic growth profiling, strain panel (AID 1159580);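 also: tested at 20 µM; growth read once vehicle control cultures reached saturation at 30 °C; 1 = growth at the plate median or of vehicle wells; lower values mean less growth of the strain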
- experimental_conditions: S. cerevisiae deletion strains, growth OD, locus YLR268W, strain sec22, stronger effect = lower value
About 2,000 (36%) of roughly 5,500 compounds were called active. Roughly 18% stayed inconclusive and do not appear here. The list shows a part of the results.
Consider the cut-off 1. If the recorded normalized growth is strictly smaller, the label is Satisfied; if not, the label is Not satisfied.

Q: Hi there! Is normalized growth for CC(N=C(NC#N)Nc1ccncc1)C(C)(C)C (centres undefined) below 1, do you know?
A: Not satisfied

Q: Hi there! Is normalized growth for `CC1=CC(=O)c2ccccc2C1=O` below 1, do you know?
A: Satisfied

Q: Hi there! Is normalized growth for `CCCSc1ccc2nc(NC(=O)OC)[nH]c2c1` below 1, do you know?
A: Satisfied

Q: Hi there! Is normalized growth for `C=C1c2cccc(O)c2C(O)=C2C(=O)[C@]3(O)C(O)=C(C(N)=O)C(=O)[C@@H](N(C)C)[C@@H]3[C@@H](O)[C@H]12` below 1, do you know?
A: Satisfied

Q: Hi there! Is normalized growth for `N=C(N)N` below 1, do you know?
A: Satisfied

Q: Hi there! Is normalized growth for `OC[C@H]1O[C@@](CO)(O[C@@H]2O[C@H](CO)[C@@H](O)[C@H](O)[C@H]2O)[C@@H](O[C@@H]2O[C@H](CO)[C@@H](O)[C@H](O)[C@H]2O)[C@@H]1O` below 1, do you know?
A: Not satisfied

Q: Hi there! Is normalized growth for `OC[C@H]1O[C@@H](O[C@H]2[C@H](O)[C@@H](O)[C@@H](O)O[C@@H]2CO)[C@H](O)[C@@H](O)[C@@H]1O` below 1, do you know?
A: Not satisfied

Q: Hi there! Is normalized growth for `CN(C)[C@@H]1C(=O)C(C(N)=O)=C(O)[C@@]2(O)C(=O)C3=C(O)c4c(O)ccc(Cl)c4[C@@H](O)[C@H]3C[C@@H]12` below 1, do you know?
A: Satisfied

Q: Hi there! Is normalized growth for `CN(C)c1ccc(O)c2c1C[C@H]1C[C@H]3[C@H](N(C)C)C(=O)C(C(N)=O)=C(O)[C@@]3(O)C(=O)C1=C2O` below 1, do you know?
A: Not satisfied

Q: Hi there! Is normalized growth for CC(C)CC(NC(=O)OCC1c2ccccc2-c2ccccc21)C(=O)O (centres undefined) below 1, do you know?
A: Not satisfied

Q: Hi there! Is normalized growth for `CCN(CC)CCOC(=O)C1(C2CCCCC2)CCCCC1` below 1, do you know?
A: Satisfied

###

Exercise: state measured normalized growth for each of the compounds provided.
- method_notes: chemical genetic growth profiling, strain panel (AID 1159580);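 also: tested at 20 µM; growth read once vehicle control cultures reached saturation at 30 °C; 1 = growth at the plate median or of vehicle wells; lower values mean less growth of the strain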
- experimental_conditions: S. cerevisiae deletion strains, growth OD, locus YKL085W, strain MDH1 (second series), stronger effect = lower value
In all, about 5,500 compounds went through this assay and about 2,000 (36%) were called active. Inconclusive results (about 18%) are left out. Some of the results follow.
Quick one: just the number, no unit, thanks!

Note to self: normalized growth recorded for `O=C(O)c1cc(O)c2c(c1)[C@@H]([C@H]1c3cc(C(=O)O)cc(O)c3C(=O)c3c(O[C@H]4O[C@H](CO)[C@@H](O)[C@H](O)[C@H]4O)cccc31)c1cccc(O[C@H]3O[C@H](CO)[C@@H](O)[C@H](O)[C@H]3O)c1C2=O` was 1.03

Note to self: normalized growth recorded for CC(=O)O[C@H]1CCC2(C)C3=C(CCC2C1(C)C)[C@@]1(C)CC[C@@H](C(C)CCC=C(C)C)[C@]1(C)CC3 (some centres undefined) was 1.03

Note to self: normalized growth recorded for CC(C)=CCCC(C)C1CC[C@@]2(C)C3=C(CC[C@]12C)C1(C)CC[C@H](O)C(C)(C)C1CC3 (some centres undefined) was 1.05

Note to self: normalized growth recorded for CC(C)CCCC(C)C1CC[C@@]2(C)C3=C(CC[C@]12C)[C@@]1(C)CC[C@H](O)C(C)(C)C1CC3 (some centres undefined) was 0.988

###

Exercise: state measured normalized growth for each of the compounds provided.
- method_notes: chemical genetic growth profiling, strain panel (AID 1159580);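 also: tested at 20 µM; growth read once vehicle control cultures reached saturation at 30 °C; 1 = growth at the plate median or of vehicle wells; lower values mean less growth of the strain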
- experimental_conditions: S. cerevisiae deletion strains, growth OD, locus YNL207W, strain RIO2, stronger effect = lower value
Among all 5,500 compounds or so, about 2,000 (36%) were called active. About 18% were inconclusive and are not listed. This is one part of the list.
Quick one: just the number, no unit, thanks!

Note to self: normalized growth recorded for C#CCSC1=NNC(c2ccccn2)S1 (centres undefined) was 0.811

Note to self: normalized growth recorded for `Cc1ccc2nc(-c3ccc4c(c3)OCCO4)cn2c1` was 0.978

Note to self: normalized growth recorded for `Cc1onc(-c2c(Cl)cccc2Cl)c1C(=O)O/N=C(/N)Cc1ccc(C(C)(C)C)cc1` was 0.992

Note to self: normalized growth recorded for `CSc1sc(C(=O)Sc2ccccc2)cc1S(=O)(=O)C(C)C` was 0.974

Note to self: normalized growth recorded for `Cc1onc(-c2c(F)cccc2Cl)c1/C(N)=N\OC(=O)c1ccc(C(C)(C)C)cc1` was 0.99

Note to self: normalized growth recorded for O=[N+]([O-])c1cccc(C2CC(c3ccccc3)=Nc3ccccc3S2)c1 (centres undefined) was 0.964

Note to self: normalized growth recorded for `CSc1n[nH]c(-c2cc(C(C)(C)C)oc2C)c1C#N` was 0.937

Note to self: normalized growth recorded for `CCOC(=O)c1ccc(Cl)c(N=Cc2cc(Cl)cc(Cl)c2O)c1` was 0.956

Note to self: normalized growth recorded for `Cc1ccc(-c2csc(-c3ccncc3)n2)cc1` was 0.905
